Hello, the source for this data is patent US20200261595A1, in case you need it.

Target system: insulin receptor of isolated rat adipocytes (rat, UniProt P15127 27-1383)
Sequence (P15127 27-1383): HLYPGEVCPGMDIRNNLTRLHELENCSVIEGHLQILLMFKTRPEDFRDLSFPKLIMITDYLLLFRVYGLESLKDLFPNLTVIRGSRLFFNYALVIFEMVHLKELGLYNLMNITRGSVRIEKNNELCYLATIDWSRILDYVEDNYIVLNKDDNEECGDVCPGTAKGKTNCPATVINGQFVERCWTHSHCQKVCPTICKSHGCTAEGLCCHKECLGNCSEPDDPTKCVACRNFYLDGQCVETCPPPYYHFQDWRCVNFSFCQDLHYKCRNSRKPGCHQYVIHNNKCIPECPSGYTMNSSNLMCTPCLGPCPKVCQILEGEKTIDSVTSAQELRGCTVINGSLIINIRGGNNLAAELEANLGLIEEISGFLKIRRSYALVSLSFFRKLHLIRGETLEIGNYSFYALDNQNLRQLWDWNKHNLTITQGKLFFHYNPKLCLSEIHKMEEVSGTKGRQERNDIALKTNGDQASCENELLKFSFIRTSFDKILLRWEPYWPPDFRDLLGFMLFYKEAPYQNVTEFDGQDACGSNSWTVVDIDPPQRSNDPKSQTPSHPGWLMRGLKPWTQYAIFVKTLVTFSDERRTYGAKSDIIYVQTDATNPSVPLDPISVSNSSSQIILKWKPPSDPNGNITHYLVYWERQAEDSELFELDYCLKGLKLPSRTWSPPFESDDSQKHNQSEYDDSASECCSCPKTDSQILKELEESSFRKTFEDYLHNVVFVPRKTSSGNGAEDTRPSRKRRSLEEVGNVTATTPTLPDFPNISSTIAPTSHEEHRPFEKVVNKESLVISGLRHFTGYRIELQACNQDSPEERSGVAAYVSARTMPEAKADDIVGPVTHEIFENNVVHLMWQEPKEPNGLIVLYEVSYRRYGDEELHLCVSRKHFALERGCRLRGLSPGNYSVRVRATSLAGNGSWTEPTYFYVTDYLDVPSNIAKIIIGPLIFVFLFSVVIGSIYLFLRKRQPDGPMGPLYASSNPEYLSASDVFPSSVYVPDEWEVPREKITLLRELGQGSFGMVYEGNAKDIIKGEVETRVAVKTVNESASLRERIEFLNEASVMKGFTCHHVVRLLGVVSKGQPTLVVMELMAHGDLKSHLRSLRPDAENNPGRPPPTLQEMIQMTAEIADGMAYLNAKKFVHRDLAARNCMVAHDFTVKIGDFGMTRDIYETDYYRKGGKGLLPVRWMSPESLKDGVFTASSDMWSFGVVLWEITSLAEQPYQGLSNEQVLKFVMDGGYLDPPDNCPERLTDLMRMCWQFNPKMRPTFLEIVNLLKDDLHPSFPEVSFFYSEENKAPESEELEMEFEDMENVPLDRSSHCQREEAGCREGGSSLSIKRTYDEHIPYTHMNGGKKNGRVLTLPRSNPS
Assay comment: cell-based or functional assay
The following binders are listed with their measured Lipogenesis in rat adipocytes [Potency (%)] Mean Value values.

Q: Respond only with Lipogenesis in rat adipocytes [Potency (%)] Mean Value recorded for A14E, A21G, A22(GQEP)19, A98K^, A99P, B3Q, B25H, B29R, desB30 human insulin/(227A, 234A, 235K, 297E, 315Q, 384Q, des447 hIgG4-Fc(228-447)) … (other, Cys229 (EU numbering) sulphur bound to an acetyl arm of the linker; A98K N(eps) acylated by the trivalent linker 4-[bis[2-[(2-acetyl)amino]ethyl]amino]-4-oxo-butanoyl, also called Ex 5.2) chain 1: GIVEQCCTSICSLEQLENYCGGQEPGQEPGQEPGQEPGQEPGQEPGQEPGQEPGQEPGQEPGQEPGQEPGQEPGQEPGQEPGQEPGQEPGQEPGQEPKP chain 2: FVQQHLCGSHLVEALYLVCGERGFHYTPR chain 3: ASCPAPEAKGGPSVFLFPPKPKDTLMISRTPEVTCVVVDVSQEDPEVQFNWYVDGVEVHNAKTKPREEQFESTYRVVSVLTVLHQDWLQGKEYKCKVSNKGLPSSIEKTISKAKGQPREPQVYTLPPSQEEMTKNQVSLTCLVKGFYPSDIAVEWESQGQPENNYKTTPPVLDSDGSFFLYSRLTVDKSRWQEGNVFSCSVMHEALHNHYTQKSLSLSLG
Result: 3.57 % of human insulin

Q: Name the recorded Lipogenesis in rat adipocytes [Potency (%)] Mean Value of the item (A14E, A21G, A22(GQAP)24, A118G, A119Q, A120A, A121K^, A122P, B25H, B29R, desB30 human insulin)/(227A, 234A, 235K, 297E, 315Q, 384Q, des447 hIgG4-Fc(228-447)) … (other, Cys229 (EU numbering) sulphur bound to an acetyl arm of the linker; A121K N(eps) acylated by the trivalent linker 4-[bis[2-[(2-acetyl)amino]ethyl]amino]-4-oxo-butanoyl, also called Ex 5.23) chain 1: GIVEQCCTSICSLEQLENYCGGQAPGQAPGQAPGQAPGQAPGQAPGQAPGQAPGQAPGQAPGQAPGQAPGQAPGQAPGQAPGQAPGQAPGQAPGQAPGQAPGQAPGQAPGQAPGQAPGQAKP chain 2: FVNQHLCGSHLVEALYLVCGERGFHYTPR chain 3: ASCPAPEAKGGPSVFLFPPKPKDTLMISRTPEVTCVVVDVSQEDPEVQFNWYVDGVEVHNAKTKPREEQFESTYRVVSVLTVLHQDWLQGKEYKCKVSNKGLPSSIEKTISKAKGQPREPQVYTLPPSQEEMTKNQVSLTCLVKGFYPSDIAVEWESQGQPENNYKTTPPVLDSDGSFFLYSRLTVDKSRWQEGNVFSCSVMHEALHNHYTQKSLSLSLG in your answer.
Result: 5.36 % of human insulin
